Record form. Attribute: self-splicing fitness (ln). Fill in for each entry.
Assay: self-splicing fitness, log relative to wild type (ln ratio); higher = more splicing; Tetrahymena group I intron in knt gene, E. coli kanamycin selection, DiMSum; sequences stand for … in CUCUCU…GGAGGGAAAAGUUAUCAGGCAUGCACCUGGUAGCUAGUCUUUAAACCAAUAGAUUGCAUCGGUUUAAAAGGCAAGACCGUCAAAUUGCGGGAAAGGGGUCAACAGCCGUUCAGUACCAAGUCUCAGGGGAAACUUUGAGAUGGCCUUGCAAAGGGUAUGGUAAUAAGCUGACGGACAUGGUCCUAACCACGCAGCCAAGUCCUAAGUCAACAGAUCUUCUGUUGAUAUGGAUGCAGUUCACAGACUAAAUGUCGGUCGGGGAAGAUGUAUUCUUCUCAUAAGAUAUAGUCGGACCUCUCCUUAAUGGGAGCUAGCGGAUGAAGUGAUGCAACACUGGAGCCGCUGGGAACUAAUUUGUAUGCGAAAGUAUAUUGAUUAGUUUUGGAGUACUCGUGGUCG;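 also: selection with 25 µg/mL kanamycin versus none on LB agar overnight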
Settings: 37 °C
API note: the answer field is a bare number with no unit suffix.

[in] Kindly indicate its recorded self-splicing fitness (ln). Item: "UCAAAGCAAUAUUACGCUUC"
[out] -2.02

[in] Kindly indicate its recorded self-splicing fitness (ln). Item: "CGAAAGCAAUAUUACGGGGC"
[out] -1.98

[in] Kindly indicate its recorded self-splicing fitness (ln). Item: "CUAGAGCAAUAUUACGCAGC"
[out] -3.32

[in] Kindly indicate its recorded self-splicing fitness (ln). Item: "AACGAGCAAUAUUACGUUAG"
[out] -3.11

[in] Kindly indicate its recorded self-splicing fitness (ln). Item: "CAGCAGCAAUAUUACGUCGA"
[out] -1.25

[in] Kindly indicate its recorded self-splicing fitness (ln). Item: "CGGCAGCAAUAUUACGCGGG"
[out] -1.42

[in] Kindly indicate its recorded self-splicing fitness (ln). Item: "ACGCAGCAAUAUUACGAGCC"
[out] -1.84

Value source: the supplement of paper PMC7877785
